B1: glmS ribozyme (parent)
chain: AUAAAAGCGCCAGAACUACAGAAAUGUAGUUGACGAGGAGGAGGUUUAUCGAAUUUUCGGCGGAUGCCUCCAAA

- Variants of: B1
- protocol notes: self-cleavage kobs at 10000 uM GlcN6P; higher = faster cleavage; RNA array
- particulars: with glucosamine-6-phosphate
Fewer inactive variants are shown than the library holds.
readout: self-cleavage kobs at 10000 uM GlcN6P (s⁻¹)
// note: answer is a bare numeric in s⁻¹

Worked examples, 5 variants total:
- mutant label: "A52G U55C"
  self-cleavage kobs at 10000 uM GlcN6P (s⁻¹): 0.00158
- mutant label: "A14C A64G"
  self-cleavage kobs at 10000 uM GlcN6P (s⁻¹): 0.00267
- mutant label: "A12U A48U"
  self-cleavage kobs at 10000 uM GlcN6P (s⁻¹): 0.00139
- mutant label: "A33C A53G"
  self-cleavage kobs at 10000 uM GlcN6P (s⁻¹): 0.000235
- mutant label: "A42U U46A"
  self-cleavage kobs at 10000 uM GlcN6P (s⁻¹): 0.000112

**Query** Name the recorded self-cleavage kobs at 10000 uM GlcN6P for G13C U45G .
**Result** 3.22e-05

**Query** Now consider A15U A64G and answer again.
**Result** 0.0066

**Query** Now consider A12C U47C and answer again.
**Result** 0.00226

**Query** Now consider A42G C58A C67U and answer again.
**Result** 0.00012

**Query** Now consider G40A U65C and answer again.
**Result** 0.000296

**Query** Now consider U30G A52U and answer again.
**Result** 5.6e-05

**Query** Now consider C8U C50U C58G C61U C67U C68G and answer again.
**Result** 0.00105

**Query** Now consider U54G G59U and answer again.
**Result** 3.71e-05

**Query** Now consider A15G A64G and answer again.
**Result** 0.0604
